Test system: BGC-823, liver cancer
PROTOCOL DESCRIPTION: preliminary anti-tumor screening in vitro, SRB method
Format: cell-based
REPORTED CONDITIONS: Homo sapiens, 0.1 μM, read-out: inhibition rates (%) BGC-823
Each record's inhibition at 0.1 µM is compared with low group = under 5%, middle group = from 5% up to 7%, high group = 7% and over to give its class.

# example entries with known answers
CC(C)C[C@H](NC(=O)N[C@H](Cc1ccccc1)C(=O)Nc1cnccn1)B(O)O = low group
CC(C)C[C@H](NC(=O)N[C@@H](Cc1ccccc1)C(=O)Nc1cccc(OCc2ccccc2)c1)B(O)O = middle group

Qu. Bin this entry: `CC(C)C[C@H](NC(=O)[C@H](Cc1ccccc1)NC(=O)NCc1ccccc1)B(O)O`
Ans. high group

Qu. Classify this compound: `CC(C)C[C@H](NC(=O)N[C@@H](Cc1ccccc1)C(=O)N[C@@H](CC(C)C)C(=O)Nc1cnccn1)B1OC(C)(C)C(C)(C)O1`
Ans. low group

----------
ASSAYED SYSTEM: 20S proteasome extracted from rat liver (CT-L) (Rattus norvegicus, UniProt P18421+P28075)
Construct: 20S proteasome extracted from rat liver; from tissue; host or cells: rat liver
PROTOCOL DESCRIPTION: inhibition of 20S proteasome, CT-L activity (fluorescent peptide)
Type: biochemical
REPORTED CONDITIONS: 2 μM; rat liver 20S proteasome, 37° C., 1 h; read-out: inhibition rates (%) CT-L
OBSERVABLE: inhibition at 2 µM (%)
Write the number in % without appending the unit.

Example compounds with recorded inhibition at 2 µM:
CC(C)C[C@H](NC(=O)N[C@@H](Cc1ccccc1)C(=O)NCC1CCCO1)B(O)O (some centres unmarked) = 1.91
COc1ccc(CNC(=O)N[C@@H](Cc2ccccc2)C(=O)N[C@@H](CC(C)C)B(O)O)cc1 = 95.9
COc1ccc(CNC(=O)[C@H](Cc2ccccc2)NC(=O)N[C@@H](CC(C)C)B(O)O)cc1 = 86.8
CC(C)C[C@H](NC(=O)N[C@H](Cc1ccccc1)C(=O)Nc1cnccn1)B(O)O = 47.8
CC(C)C[C@H](NC(=O)N[C@@H](Cc1ccccc1)C(=O)Nc1cccc(OCc2ccccc2)c1)B(O)O = 10.4

Qu. Value lookup for inhibition at 2 µM; key = CC(C)C[C@H](NC(=O)N[C@@H](Cc1ccccc1)C(=O)Nc1cnccn1)B1OC2C[C@H]3C[C@H](C3(C)C)[C@@]2(C)O1 (some centres unmarked)
Ans. 47.2

Qu. Need inhibition at 2 µM of `CC(C)C[C@H](NC(=O)CNC(=O)Nc1cc(Cl)ccc1Cl)B(O)O` , thanks.
Ans. 89.7

Qu. What measured inhibition at 2 µM goes with `CC(C)C[C@H](NC(=O)[C@H](Cc1ccccc1)NC(=O)NCc1ccccc1)B(O)O` ?
Ans. 96.1

Qu. Query (compound): `CC(C)C[C@H](NC(=O)N[C@@H](Cc1ccccc1)C(=O)N[C@@H](CC(C)C)C(=O)Nc1cnccn1)B(O)O` ; field requested: inhibition at 2 µM
Ans. 93.4

----------
ASSAYED SYSTEM: 20S proteasome extracted from rat liver (T-L) (Rattus norvegicus, UniProt P40112+Q9JHW0)
Construct: 20S proteasome extracted from rat liver; from tissue; host or cells: rat liver
PROTOCOL DESCRIPTION: inhibition of 20S proteasome, T-L activity (fluorescent peptide)
Assay type: biochemical
OBSERVABLE: IC50 (nM)
Please give a number only; it is taken to be in nM.

CC(C)C[C@H](NC(=O)[C@H](Cc1ccccc1)NC(=O)NCc1cnccn1)B(O)O = 11400
CC(C)C[C@H](NC(=O)[C@H](Cc1ccccc1)NC(=O)NCc1cc(Cl)ccc1Cl)B(O)O = 530
CC(C)C[C@H](NC(=O)[C@H](Cc1ccccc1)NC(=O)NCc1ccc(F)c(F)c1)B(O)O = 340
CC(C)C[C@H](NC(=O)[C@H](Cc1ccccc1)NC(=O)NCCc1ccccc1)B(O)O = 1050
CC(C)C[C@H](NC(=O)[C@H](Cc1ccccc1)NC(=O)N(C)Cc1ccccc1)B(O)O = 190
Cc1cccc(CNC(=O)N[C@@H](Cc2ccccc2)C(=O)N[C@@H](CC(C)C)B(O)O)c1C = 340

Qu. What measured IC50 goes with `CC(C)C[C@H](NC(=O)[C@H](Cc1ccccc1)NC(=O)NCc1ccco1)B(O)O` ?
Ans. 5320

Qu. Requested field: IC50. Item: `CC(C)C[C@H](NC(=O)[C@H](Cc1ccccc1)NC(=O)NCc1cccc([N+](=O)[O-])c1)B(O)O`
Ans. 190

Qu. Quick check: IC50 of `CC(C)C[C@H](NC(=O)[C@H](Cc1ccccc1)NC(=O)N1CCc2ccccc2C1)B(O)O` ?
Ans. 2380
